Assay: Acute fish toxicity
Settings: in vivo; young carp, Official Standard of Ministry of Agriculture & Forestry; read-out: acute fish toxicity TLm
Protocol: Acute oral toxicity LD50 value of the compound of the invention measured on SD-strain rat is more than 2,000 mg/Kg for any of the trans-form, cis-form and a mixture thereof in equal amount and further acute fish toxicity TLm value (as defined by Official Standard issued from Ministry of Agriculture & Forestry) measured on young carp is more than 20 ppm for any of the above compounds.
Measured attribute: LC50

Worked set:
- Compound: "C/C=C\\COc1ccc(NC(=O)N(C)C)cc1 [cis-form]"
  Measured attribute: "LC50"
  Value: "> 20 µg/mL"
- Compound: "CC=CCOc1ccc(NC(=O)N(C)C)cc1 [Mixture of trans- and cis-forms 1:1]"
  Measured attribute: "LC50"
  Value: "> 20 µg/mL"

Now examine the next entry.
## Task Please look at this compound and report its LC50: C/C=C/COc1ccc(NC(=O)N(C)C)cc1 [trans-form]
## Result > 20 µg/mL
